- target.or.test.system: T1, human TMEM106B (human, UniProt Q9NUM4 2-274)
- T1 construct: full-length, transiently expressed on HEK293 cells, or natively expressed on HeLa, U251 and A549 cells (the cell is named under assay); also the source of the Pepscan peptides; also called huTMEM106B; huTMEM
- assay.details: FACS HEK+huTMEM 0.1 ug/ml;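 note: flow cytometry binding of purified mouse IgG antibodies to HEK293 cells transiently expressing TMEM106B, read as median fluorescence intensity on live cells (propidium iodide negative gating)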
// NB: equality with 2000 MFI counts as FALSE; only MFI strictly below is TRUE

These solved cases illustrate the format of a correct answer.
- binder: "TM-50 (antibody, V domains shown, mouse IgG (hybridoma)) VH: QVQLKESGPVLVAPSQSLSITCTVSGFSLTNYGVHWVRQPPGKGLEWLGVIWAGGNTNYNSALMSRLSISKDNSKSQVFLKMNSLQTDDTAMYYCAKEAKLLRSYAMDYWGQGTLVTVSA VL: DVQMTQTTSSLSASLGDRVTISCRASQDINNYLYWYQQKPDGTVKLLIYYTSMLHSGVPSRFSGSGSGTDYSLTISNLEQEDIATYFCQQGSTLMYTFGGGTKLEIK"
  cat: "TRUE"
- binder: "TM-2 (antibody, V domains shown) VH: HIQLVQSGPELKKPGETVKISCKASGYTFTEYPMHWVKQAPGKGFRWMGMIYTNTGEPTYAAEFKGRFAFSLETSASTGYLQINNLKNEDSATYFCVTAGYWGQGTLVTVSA VL: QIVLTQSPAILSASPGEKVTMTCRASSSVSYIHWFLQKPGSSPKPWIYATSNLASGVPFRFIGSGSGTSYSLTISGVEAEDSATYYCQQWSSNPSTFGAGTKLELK"
  cat: "FALSE"
- binder: "TM-28 (antibody, V domains shown) VH: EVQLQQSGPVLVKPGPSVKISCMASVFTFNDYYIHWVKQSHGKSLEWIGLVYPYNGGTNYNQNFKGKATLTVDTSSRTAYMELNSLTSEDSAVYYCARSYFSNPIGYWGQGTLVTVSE VL: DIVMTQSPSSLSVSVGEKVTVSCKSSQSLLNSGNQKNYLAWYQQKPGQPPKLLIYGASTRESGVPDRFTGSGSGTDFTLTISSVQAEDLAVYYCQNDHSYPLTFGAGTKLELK"
  cat: "FALSE"
- binder: "TM-16 (antibody, V domains shown) VH: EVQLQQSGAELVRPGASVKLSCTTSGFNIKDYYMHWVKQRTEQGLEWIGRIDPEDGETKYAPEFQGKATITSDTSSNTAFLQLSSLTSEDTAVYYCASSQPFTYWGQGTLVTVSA VL: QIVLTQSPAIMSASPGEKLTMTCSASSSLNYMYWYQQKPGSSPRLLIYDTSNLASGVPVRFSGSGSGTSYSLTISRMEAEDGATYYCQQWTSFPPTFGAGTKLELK"
  cat: "TRUE"
- binder: "TM-7 (antibody, V domains shown) VH: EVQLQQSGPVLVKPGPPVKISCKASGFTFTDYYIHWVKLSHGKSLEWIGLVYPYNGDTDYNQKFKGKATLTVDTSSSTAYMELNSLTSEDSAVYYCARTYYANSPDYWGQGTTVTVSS VL: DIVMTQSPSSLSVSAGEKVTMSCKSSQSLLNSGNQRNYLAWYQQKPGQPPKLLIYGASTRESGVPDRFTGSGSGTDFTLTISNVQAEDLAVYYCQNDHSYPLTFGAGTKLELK"
  cat: "FALSE"

Prompt: Strictly below 2000 MFI in MFI? TM-23 (antibody, V domains shown) VH: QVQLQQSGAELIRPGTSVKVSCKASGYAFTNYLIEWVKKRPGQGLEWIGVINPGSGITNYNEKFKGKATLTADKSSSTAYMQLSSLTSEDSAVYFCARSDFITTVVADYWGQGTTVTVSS VL: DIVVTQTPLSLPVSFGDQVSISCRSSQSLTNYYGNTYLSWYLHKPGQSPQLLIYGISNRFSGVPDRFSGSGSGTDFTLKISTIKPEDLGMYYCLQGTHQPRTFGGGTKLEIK
Completion: FALSE

Prompt: Strictly below 2000 MFI: is that where MFI of TM-6 (antibody, V domains shown, mouse IgG (hybridoma)) VH: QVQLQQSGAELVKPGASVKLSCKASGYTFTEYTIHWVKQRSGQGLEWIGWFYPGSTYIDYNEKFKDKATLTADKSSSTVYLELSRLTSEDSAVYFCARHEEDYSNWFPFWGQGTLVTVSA VL: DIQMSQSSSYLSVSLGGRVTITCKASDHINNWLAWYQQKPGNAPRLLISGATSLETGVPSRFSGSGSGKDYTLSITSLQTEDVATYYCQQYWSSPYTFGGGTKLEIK sits?
Completion: TRUE

Prompt: Here's an entry: TM-5 (antibody, V domains shown) VH: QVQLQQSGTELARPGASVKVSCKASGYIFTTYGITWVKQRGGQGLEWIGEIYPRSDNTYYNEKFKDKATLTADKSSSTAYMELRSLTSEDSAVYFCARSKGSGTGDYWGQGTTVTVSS VL: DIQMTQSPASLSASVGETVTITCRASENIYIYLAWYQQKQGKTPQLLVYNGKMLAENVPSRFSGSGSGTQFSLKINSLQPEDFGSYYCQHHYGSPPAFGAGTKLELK . Is its MFI below 2000 MFI?
Completion: FALSE

Prompt: Quick check: does TM-17 (antibody, V domains shown) VH: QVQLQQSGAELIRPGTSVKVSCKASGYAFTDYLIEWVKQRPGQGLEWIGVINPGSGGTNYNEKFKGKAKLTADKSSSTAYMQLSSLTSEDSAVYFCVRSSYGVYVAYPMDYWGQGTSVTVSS VL: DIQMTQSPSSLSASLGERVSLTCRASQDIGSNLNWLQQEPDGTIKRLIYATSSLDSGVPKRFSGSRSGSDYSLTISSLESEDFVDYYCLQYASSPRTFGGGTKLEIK have MFI under 2000 MFI?
Completion: TRUE

Prompt: Please determine if TM-14 (antibody, V domains shown, mouse IgG (hybridoma)) VH: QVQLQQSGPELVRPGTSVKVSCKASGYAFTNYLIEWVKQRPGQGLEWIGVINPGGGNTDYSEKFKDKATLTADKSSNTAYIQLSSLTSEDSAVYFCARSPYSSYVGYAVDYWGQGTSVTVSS VL: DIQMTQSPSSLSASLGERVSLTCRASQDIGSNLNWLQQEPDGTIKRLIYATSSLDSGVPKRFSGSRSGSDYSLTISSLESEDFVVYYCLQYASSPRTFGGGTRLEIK is below 2000 MFI in terms of MFI.
Completion: TRUE

Entry source: patent US20200339680A1
